Target: T1, full length recombinant human 2N4R tau (human, UniProt P10636 1-758)
T1 construct: bought from rPeptide; pHrodo Red maleimide-labelled where it stands in uptake assays; also called tau1-441; full length tau
T1 sequence (P10636 other isoform, or with tags, fused parts or gaps limits assumed): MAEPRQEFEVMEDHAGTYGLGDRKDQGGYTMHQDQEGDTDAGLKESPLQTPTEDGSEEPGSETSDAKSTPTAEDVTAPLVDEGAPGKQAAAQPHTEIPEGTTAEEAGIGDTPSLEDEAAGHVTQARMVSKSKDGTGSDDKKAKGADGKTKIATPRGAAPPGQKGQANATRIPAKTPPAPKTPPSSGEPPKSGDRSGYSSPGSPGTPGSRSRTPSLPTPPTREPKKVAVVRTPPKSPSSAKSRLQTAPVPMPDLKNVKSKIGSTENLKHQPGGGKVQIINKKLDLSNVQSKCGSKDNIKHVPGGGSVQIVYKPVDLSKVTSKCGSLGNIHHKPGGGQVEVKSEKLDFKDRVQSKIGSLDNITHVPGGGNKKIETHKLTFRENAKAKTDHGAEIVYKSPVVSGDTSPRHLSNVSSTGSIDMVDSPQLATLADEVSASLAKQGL
Assay: SPR SCK, IgG on Protein A, tau in flow
Quick rule for you: koff at 0.02 s⁻¹ or higher means MET, lower means NOT MET.

Some solved cases for reference:
BINDER | ASSIGNED_CATEGORY
#44 VH1VK1 humanised hIgG1 (antibody, V domains shown, also called VH1Vκ1) VH: QSVQESGGGLVKPSETLSLTCTVSGIDLSSYAMAWVRQAPGKGLEWIGCIDRRGGTFYASWVKGRFTISKTSTTVDLKMTSLTAEDTATYFCARDSGAFDPWGQGTLVTVSS VL: QIVMTQSPSSLSASVGDRVTITCQASQSVYDNYLAWYQQKPGQPPKLLIHAASNLASRVPSRFKGSGSGTEFTLTISSLQCDDFATYYCLGEFSCTTTDCNVFGGGTEVVIK | MET
#44 VH0VK0 chimeric human IgG1 (antibody, V domains shown, rabbit VH and VK on human IgG1; also called VH0Vκ0; Clone #44 hIgG1) VH: QSVEESGGRLVTPGTPLTLTCTVSGIDLSSYAMAWVRQAPGKGLEWIGCIDRRGGTFYASWVKGRFTISKTSTTVDLKMTSLTTEDTATYFCARDSGAFDPWGPGTLVTVSS VL: QIVMTQTPSSVSAAVGGTVTIKCQASQSVYDNYLAWYQQKPGQPPKLLIHAASNLASRVPSRFKGSGSGTQFTLTISDVQCDDAATYYCLGEFSCTTTDCNVFGGGTEVVVK | NOT MET
#44 VH4VK3 humanised hIgG1 (antibody, V domains shown, also called VH4Vκ3; Clone VH4VK3 (D)) VH: QVQLQESGPGLVKPSETLSLTCTVSGIDLSSYAMAWVRQAPGKGLEWIGCIDRRGGTFYASWVKGRFTISKDTSKTTVDLQMTSLTAEDTATYFCARDSGAFDPWGQGTLVTVSS VL: DIQMTQSPSSLSASVGDRVTITCQASQSVYDNYLAWYQQKPGQPPKLLIHAASNLASGVPSRFKGSGSGTEFTLTISSLQPDDFATYYCLGEFSCTTTDCNVFGGGTKVEIK | MET

Task item: # bool: koff of #44 VH4VK1 humanised hIgG1 (antibody, V domains shown, also called VH4Vκ1) VH: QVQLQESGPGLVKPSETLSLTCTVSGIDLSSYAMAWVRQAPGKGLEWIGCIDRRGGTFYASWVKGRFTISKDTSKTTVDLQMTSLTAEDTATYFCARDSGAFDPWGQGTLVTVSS VL: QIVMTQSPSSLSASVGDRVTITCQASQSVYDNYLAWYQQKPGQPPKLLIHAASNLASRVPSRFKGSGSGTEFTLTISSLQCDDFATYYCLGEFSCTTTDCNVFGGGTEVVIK >= 0.02 s⁻¹
Reply: MET

Task item: # bool: koff of #44 VH2VK3 humanised hIgG1 (antibody, V domains shown, also called VH2Vκ3) VH: QSVQESGPGLVKPSETLSLTCTVSGIDLSSYAMAWVRQAPGKGLEWIGCIDRRGGTFYASWVKGRFTISKTSTTVDLQMTSLTAEDTATYFCARDSGAFDPWGQGTLVTVSS VL: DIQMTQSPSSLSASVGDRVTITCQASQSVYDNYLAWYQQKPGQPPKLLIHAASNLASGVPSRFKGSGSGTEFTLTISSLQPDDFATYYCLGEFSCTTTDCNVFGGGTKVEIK >= 0.02 s⁻¹
Reply: NOT MET

Task item: # bool: koff of #44 VH5VK1 humanised hIgG1 (antibody, V domains shown, also called VH5Vκ1) VH: QVQLQESGPGLVKPSETLSLTCTVSGIDLSSYAMAWVRQAPGKGLEWIGCIDRRGGTFYASWVKGRFTISRDNSKNTLDLQMTSLTAEDTATYYCARDSGAFDPWGQGTLVTVSS VL: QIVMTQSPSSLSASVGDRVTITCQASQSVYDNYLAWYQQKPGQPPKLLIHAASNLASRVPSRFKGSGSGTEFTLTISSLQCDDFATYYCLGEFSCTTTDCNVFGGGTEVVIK >= 0.02 s⁻¹
Reply: MET
